In this section we review reported Activity values for a set of compounds.
# Test system: Mus musculus
# measurement.notes: Induction of bone mineral density in SAMP6 mouse assessed as left hind leg BMD at 30 mg/kg/day, po measured after 3 months
# Format: functional
reported.property: Activity (g/cm2)

# compound, tgt, reported.property, result.number
rows = [
    ("COc1ccc(/C=C/C(=O)c2cc3ccccc3s2)cc1", "Mus musculus", "Activity", 0.05),
    ("C[S+]([O-])CC(=O)c1cc2ccccc2s1 (centres undefined)", "Mus musculus", "Activity", 0.05),
    ("CCOC(=O)c1cc2cc3c(cc2s1)OCO3", "Mus musculus", "Activity", 0.053),
    ("CC(=O)c1cc2ccccc2s1", "Mus musculus", "Activity", 0.05),
]
